Source listed as patent US20260274955A1.

Recorded Anti-CD28 Fab signal in the presence of CD28 values for a group of binders are listed next.
# systemName: anti-CD28 Fab (SEQ ID NOs: 202, 203)
# Sequence (VH, as listed by the source, chain 1 of 2): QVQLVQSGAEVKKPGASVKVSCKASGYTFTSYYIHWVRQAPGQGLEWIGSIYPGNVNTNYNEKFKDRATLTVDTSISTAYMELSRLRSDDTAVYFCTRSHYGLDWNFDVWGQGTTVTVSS
# Sequence (VL, as listed by the source, chain 2 of 2): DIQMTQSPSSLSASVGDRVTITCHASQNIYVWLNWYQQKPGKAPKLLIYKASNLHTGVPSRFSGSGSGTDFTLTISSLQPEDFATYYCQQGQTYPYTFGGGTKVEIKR
# assayProcedure: phage ELISA, Fab on plate, CD28 antigen as competitor;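 also: wells pre-incubated with CD28 antigen in blocking buffer (reference: blocking buffer only) before adding crude clonal phage supernatant, bound phage read with HRP-coupled anti-M13 antibody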

[[record]]
binder = "SCAAGAHYPWPECL [Phage-1160]"
recordedmeasurement = 0.05

[[record]]
binder = "SCSAGAMYTWPTCL [Phage-1166]"
recordedmeasurement = 0.08

[[record]]
binder = "LCAAGAYYPWPLCF [Phage-1173]"
recordedmeasurement = 0.06


Input: // lookup Anti-CD28 Fab signal in the presence of CD28 for TCAAGATYMWPVCL [Phage-1180]
Output: 0.07
